- System: hIL17
- run.description: IL-17 release from differentiated primary human T-cells (IL-17A HTRF assay)
- Type: cell-based
- stated.conditions: inhibition of IL-17A levels; primary human CD4+ T cells differentiated into Th17 cells, 46-hour incubation
pIC50: −log10 of the molar value.
observable: pIC50

1. C[C@@H]1C(=O)C(C#N)=C[C@]2(C)C3=CC(=O)[C@@H]4[C@@H]5CC(C)(C)CC[C@]5(NC(=O)C(C)(F)F)CC[C@@]4(C)[C@]3(C)CC[C@@H]12 [Comparison Compound #4, reference compound]
7.42
2. COCC[C@]1(C)C(=O)C(C#N)=C[C@]2(C)C3=CC(=O)[C@@H]4[C@@H]5CC(C)(C)CC[C@]5(C(=O)OC)CC[C@@]4(C)[C@]3(C)CC[C@H]21 [Compound T17]
7.52

[a] COC(=O)[C@]12CCC(C)(C)C[C@H]1[C@H]1C(=O)C=C3[C@@]4(C)C=C(C#N)C(=O)[C@@](C)(CCO)[C@@H]4CC[C@@]3(C)[C@]1(C)CC2 [Compound T19]
[b] CC(=O)OC[C@]1(C)C(=O)C(C#N)=C[C@]2(C)C3=CC(=O)[C@@H]4[C@@H]5CC(C)(C)CC[C@]5(C(=O)NCC(F)(F)F)CC[C@@]4(C)[C@]3(C)CC[C@H]21 [Compound T23]
Task item: When a and b are compared, which has the higher number for pIC50? Choose, then provide that item's label.
Reply: a
(a: 7.82, b: 7.17)
